- target: human GCG receptor (human, UniProt P47871 26-477)
- Sequence (P47871 26-477): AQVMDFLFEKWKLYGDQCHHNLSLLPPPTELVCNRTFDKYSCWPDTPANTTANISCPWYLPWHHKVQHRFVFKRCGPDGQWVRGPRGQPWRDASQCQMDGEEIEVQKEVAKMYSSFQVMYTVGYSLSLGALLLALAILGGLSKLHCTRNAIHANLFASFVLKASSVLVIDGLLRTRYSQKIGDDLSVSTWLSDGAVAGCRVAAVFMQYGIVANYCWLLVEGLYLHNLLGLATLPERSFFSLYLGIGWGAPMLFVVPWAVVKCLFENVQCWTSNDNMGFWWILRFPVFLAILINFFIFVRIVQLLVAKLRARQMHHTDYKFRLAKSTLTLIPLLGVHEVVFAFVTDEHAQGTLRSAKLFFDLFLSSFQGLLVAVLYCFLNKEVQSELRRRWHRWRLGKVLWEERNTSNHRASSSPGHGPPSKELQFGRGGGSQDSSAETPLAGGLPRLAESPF
- protocol_notes: cell-based or functional assay
Tick T if cAMP Rel. A (%) against human GCG, human GCG R cells is 80% or greater. Tick F if cAMP Rel. A (%) against human GCG, human GCG R cells is less than 80%.

State whether the measured cAMP Rel. A (%) against human GCG, human GCG R cells reaches 80%, counting equality as reaching it, for YXQGTXTSDYSIXLDKKAQXAFIEYLLESHPSSGAPPPS (Aib at 2; αMeF at 6; αMeF at 13; Lys 17 side chain AEEAc-AEEAc-γGlu-CO(CH2)18COOH; Aib at 20; C-terminal amide (NH2)) [Compound 27] T

State whether the measured cAMP Rel. A (%) against human GCG, human GCG R cells reaches 80%, counting equality as reaching it, for YXQGTXTSDYSIFLDKKAQXAFIEFLLETGPSSGAPPXS (Aib at 2; αMeF(2F) at 6; Lys 17 side chain AEEAc-AEEAc-γGlu-CO(CH2)18COOH; Aib at 20; Ac3c at 38; C-terminal amide (NH2)) [Compound 9] T

State whether the measured cAMP Rel. A (%) against human GCG, human GCG R cells reaches 80%, counting equality as reaching it, for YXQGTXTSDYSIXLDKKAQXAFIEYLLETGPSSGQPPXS (Aib at 2; αMeF at 6; αMeL at 13; Lys 17 side chain AEEAc-AEEAc-γGlu-CO(CH2)18COOH; Aib at 20; Ac3c at 38; C-terminal amide (NH2)) [Compound 35] F

State whether the measured cAMP Rel. A (%) against human GCG, human GCG R cells reaches 80%, counting equality as reaching it, for YXQGTXTSDYSIXLDKKAQXAFIEFLLEXHPSSGAPPPS (Aib at 2; αMeF(2F) at 6; αMeL at 13; Lys 17 side chain AEEAc-AEEAc-γGlu-CO(CH2)18COOH; Aib at 20; Aib at 29; C-terminal amide (NH2)) [Compound 20] T

State whether the measured cAMP Rel. A (%) against human GCG, human GCG R cells reaches 80%, counting equality as reaching it, for YXQGTXTSDYSILLDKKAQXAFIEFLLESHPSSXHPPXS (Aib at 2; αMeF at 6; Lys 17 side chain AEEAc-AEEAc-γGlu-CO(CH2)18COOH; Aib at 20; Aib at 34; Ac3c at 38; C-terminal amide (NH2)) [Compound 42] F
